Tested on: brains, heart, liver, muscle, and DRG of the NHPs
measurement-protocol: Maturation of TTM-001 and TTM-002 capsids, NGS enrichment in NHP tissues
Format: in vivo
run-conditions: NGS fold-enrichment, NHP DRG, relative to AAV9 control
So I've got a bunch of sequences here, and I need their Fold Enrichment relative to AAV9, DRG (NHP) values.
Answers are plain numbers, in fold.

Report Fold Enrichment relative to AAV9, DRG (NHP) for every entry below.
1. KTEITSGSPHSKAQNQQT
2. KSINGHDSPHKSGQIQHT
3. NTINGSGSPHSKAQNQQT (peptide inserted in AAV capsid)
4. KTEFGHDSPHKSGQNQQT

0.000
0.000
1.712
0.000

---

System: brains, heart, liver, muscle, and DRG of the NHPs
measurement-protocol: Maturation of TTM-001 and TTM-002 capsids, NGS enrichment in NHP tissues
Format: in vivo
run-conditions: NGS fold-enrichment, liver DNA of NHPs, relative to AAV9 control
Description: This Example describes maturation of the AAV9 capsid variants, TTM-001 (SEQ ID NO: 981 (amino acid) and 983 (DNA), comprising SEQ ID NO: 941 (encoded by SEQ ID NO: 942)) and TTM-002 (SEQ ID NO: 982 (amino acid) and 984 (DNA), comprising SEQ ID NO: […] (encoded by SEQ ID NO: 944)) in NHPs to further enhance their transduction and biodistribution in the central nervous system as well as other tissues, and evolve the AAV capsid variants to provide further cross-species compatibility. […]
Each entry falls in a class defined on Fold Enrichment relative to AAV9, Liver DNA (NHP); the bands are class 0: < 0.09 fold; class 1: ≥ 0.09 fold and < 0.3 fold; class 2: ≥ 0.3 fold

Using the reported Fold Enrichment relative to AAV9, Liver DNA (NHP), which band applies to KTINGGGSPHSKAQSQQI ?
class 1

Which class is correct for the following sequence? KTVRDSGSPHSKAQNQQT
class 2

Exam item: assign KTSNASGSPHSKAHNQQT to the correct category.
class 0

Assign a bin to KTEKNSGSPHSKAQNQQT
class 0

Pick a category. Item: KTFHGSGSPHSKTQNQQT
class 0

Class (by measured Fold Enrichment relative to AAV9, Liver DNA (NHP)) for KEVHGSGSPHSKAQNQQT
class 0

---

System: brain, spinal cord, and DRG of the NHPs
measurement-protocol: NGS fold enrichment of synthetic library (passage 3) in NHPs, first cross-species screen
Type: in vivo, cynomolgus macaques (Macaca fascicularis)
run-conditions: synthetic library passage 3, intravenous, RNA from spinal cord of NHPs, NGS, relative to wild-type AAV9
Can you tell me Fold enrichment over AAV9 in the spinal cord of NHPs for the items I'm about to list?
Give bare numbers, in fold.

| record-sequence | scale-unit | observed-result |
| --- | --- | --- |
| GSGMIHTTAQNQQT | fold | 0.105 |

Here are 5 sequences. What values of Fold enrichment over AAV9 in the spinal cord of NHPs were reported for them?
1. GSGKNQTPIPKGQT
2. GSGQNQGTVYPNQT
3. GSGQVAYAQGNQQT
4. GSGIPAPRLQNQQT
5. GPASLPISGQNQQT

5.077
7.648
1.309
4.162
9.008

For every item below, please supply its Fold enrichment over AAV9 in the spinal cord of NHPs.
1. GSGSSSMSFQNQQT
2. GSGSKQNALQNQQT
3. GSGSVGFIGQNQQT

1: 0.540; 2: 2.010; 3: 8.261

Could you report Fold enrichment over AAV9 in the spinal cord of NHPs for every entry in the following list?
1. GSPGVSPSGQNQQT
2. GSSHTLALGQNKQT
3. GSSGSHQYGQNQQT
4. GRGPKQSNIQNQQT
5. GYTRLETSGQNQQT
6. GSDQSKRGDSNQQT
7. GSGQNQQLKNSTST
8. GASSLATSGQNQQT

1: 3.006; 2: 2.160; 3: 0.000; 4: 0.737; 5: 1.323; 6: 0.639; 7: 1.703; 8: 0.703

# sequence GSGQKMWKLDNQQT ; its Fold enrichment over AAV9 in the spinal cord of NHPs = 0.000

---

Give measured Fold Enrichment relative to AAV9, Liver RNA (NHP) for each item. Keep answers brief.
System: brains, heart, liver, muscle, and DRG of the NHPs
measurement-protocol: Maturation of TTM-001 and TTM-002 capsids, NGS enrichment in NHP tissues
Assay type: in vivo
run-conditions: NGS fold-enrichment, liver RNA of NHPs, relative to AAV9 control
One number for each entry, in fold.

Look over these answered cases.
| record-sequence | system | observed-result |
| --- | --- | --- |
| KTEFVSGSPHSKAQNQQT | brains, heart, liver, muscle, and DRG of the NHPs | 0.196 |
| KTVHGNGSPHSKAQNQQT | brains, heart, liver, muscle, and DRG of the NHPs | 0.000 |
| KTINGSGSPHSKAQTPPT | brains, heart, liver, muscle, and DRG of the NHPs | 0.200 |
| KTINGSGSPHSKSQTQQN | brains, heart, liver, muscle, and DRG of the NHPs | 0.084 |
| KTDNGSGSPHSKAHNQQT | brains, heart, liver, muscle, and DRG of the NHPs | 0.000 |

Please go through the list and note Fold Enrichment relative to AAV9, Liver RNA (NHP) for each sequence.
1. KEVHGSGSPHSKAQNQQT
2. KTERPSGSPHSKAQNQQT
3. KTINGSGSPHSKAQSQQL
4. KTENLSGSPHSKAQNQQT
5. KTINGGGSPHSKAQDKQT
6. KTEITSGSPHSKAQNQQT

0.727
0.000
0.000
0.395
0.000
0.332

Answer for every listed entry: what is its Fold Enrichment relative to AAV9, Liver RNA (NHP)? The entries follow.
1. KSINESGSPHSKAQNQQI
2. KTINGSGSPHSKAQKQQD
3. KTISGGGSPHSKAQNQQN

1: 0.000; 2: 0.064; 3: 0.722

---

Tested on: brains, heart, liver, muscle, and DRG of the NHPs
measurement-protocol: Maturation of TTM-001 and TTM-002 capsids, NGS enrichment in NHP tissues
Assay type: in vivo
run-conditions: NGS fold-enrichment, liver RNA of NHPs, relative to AAV9 control
experimental-readout: Fold Enrichment relative to AAV9, Liver RNA (NHP) (fold)
Answers are plain numbers, in fold.

Example entries begin here.
| record-sequence | system | observed-result |
| --- | --- | --- |
| KTVNGSGSPHSKAQNHLT | brains, heart, liver, muscle, and DRG of the NHPs | 0.000 |
| KTINGSGSPHSKAQAKLT | brains, heart, liver, muscle, and DRG of the NHPs | 1.591 |
| KTVNGNGSPHSKAQNQHT | brains, heart, liver, muscle, and DRG of the NHPs | 0.000 |
| KTFHGSGSPHSKTQNQQT | brains, heart, liver, muscle, and DRG of the NHPs | 0.000 |
| KTELHSGSPHSKAQNQQT | brains, heart, liver, muscle, and DRG of the NHPs | 0.021 |

// input: 2 sequences below; output: Fold Enrichment relative to AAV9, Liver RNA (NHP) for each
1. KTVNGNGSPHSKAQNHQT
2. KTIDGSGSPHSKAQNQQH

1: 0.000; 2: 0.136

Hello, I would appreciate it if you could give Fold Enrichment relative to AAV9, Liver RNA (NHP) for each entry below.
1. KTESHSGSPHSKAQNQQT
2. KTINGSGSPHSKAQPAKT

[1.480, 0.044]

Could you report Fold Enrichment relative to AAV9, Liver RNA (NHP) for every entry in the following list?
1. KTIQDGGSPHSKAQNQQT
2. KTINGSGSPHSKAQGIRT
3. KTINGSGSPHSKALHQHT
4. KAINGSGSPHSKAQNAQT

1: 1.435; 2: 0.897; 3: 0.000; 4: 0.023

---

Tested on: brain
measurement-protocol: NGS fold enrichment of synthetic library (passage 3) in BALB/c mice, first cross-species screen
Type: in vivo
run-conditions: synthetic library passage 3, intravenous, RNA NGS, brain of BALB/c mice, relative to wild-type AAV9
Recorded Fold enrichment over AAV9 in the brain of Mice (BALB/c) split into classes band 1 (below 0.4 fold), band 2 (0.4 fold to below 0.7 fold), band 3 (0.7 fold or more)

Worked set:
| record-sequence | label |
| --- | --- |
| GSGQVHQAEVNQQT | band 1 |
| GSGQMASRESNQQT | band 1 |

Textbook exercise: identify the category of the sequence given here, GSGQPYSTGLNQQT , according to its measured value.
band 1

// bin(item) where item = GMRMEYQSGQNQQT
band 2

Hi there! Could you help me figure out the category for GIILGASSGQNQQT please?
band 3

Dear colleague, I would appreciate it if you could identify the bin for GSSHTQALGQNQQT and reply at your convenience.
band 3

Returns: class label. Input: GSGQNQQTPGAHKT
band 1

Hi, small favor: classify GLAGHTVSGQNQQT by its Fold enrichment over AAV9 in the brain of Mice (BALB/c) when you get a moment.
band 1

Which Fold enrichment over AAV9 in the brain of Mice (BALB/c) category applies to GSGQAAKSSQNQQT here?
band 3

Place this sequence in its band: GSGSHHASRQNQQT
band 2

Which category does the recorded Fold enrichment over AAV9 in the brain of Mice (BALB/c) put GPRLSDQSGQNQQT in?
band 2
